Where these numbers come from: ChEMBL document CHEMBL1201862

- Tested on: Hs-578T
- test-protocol: NCI tumour cell line growth inhibition, 48 h
The source made the active and inactive calls. Rule as the data show it: active = GI50 up to about 1.1 µM and inactive = higher.
Outcomes: active, inactive

> print(dat)
                                    molecule     class
 1  C=C1c2nc3ccccc3n2C=C(c2ccc(C)cc2)N1c1ccc(OC)cc1  inactive
 2  CC(=O)N(CCc1ccccc1)C(C#N)c1ccc(OCCCCCCCCCCOc2ccc(C(C#N)N(CCc3ccccc3)C(C)=O)cc2)cc1 (stereo not given)  inactive
 3  O=c1[nH]c(C23CC4CC(CC(C4)C2)C3)cc2c1c(=O)oc1ccccc12    active
 4             CC(=N/NC(N)=S)/C(C)=N/NC(N)=S  inactive
 5                     ClCCN1CCOC1=C1C=CC=C1  inactive
 6  CC(=O)Oc1ccc2c(c1)CC[C@@H]1C2[C@@H](O[N+](=O)[O-])C[C@@]2(C)C1CC[C@@H]2O[N+](=O)[O-] (stereo not given in full)  inactive
 7     COc1ccc(-n2c(=O)[nH]n(C(C)=O)c2=O)cc1  inactive
 8  CC(=O)c1[nH]c(NC(C)C)c(C(=S)Nc2ccccc2)c1N  inactive
 9  CC1C(=NO)C(C)C(c2ccccc2)N(N=O)C1c1ccccc1 (stereo not given)  inactive
10    COC(=O)/C=C1/OC(c2ccc(C)cc2)=C(Cl)C1=O  inactive

====

- Tested on: SK-MEL-5
- test-protocol: NCI tumour cell line growth inhibition, 48 h
The source made the active and inactive calls. Cut-off read from the data, not from the text of the source: active = GI50 up to about 1.1 µM and inactive = higher.
Outcomes: label 1 = active, label 0 = inactive

> print(dat)
                                    compound    class
 1  COc1ccc(CNNC(=O)c2cc[n+]([BH2-]C#N)cc2)cc1OC  label 0
 2  O=C(Nc1nc2ccccc2n1Cc1ccccc1)NC12CC3CC(CC(C3)C1)C2  label 0
 3        CCCCOc1ccc(NC(=N)Nc2ccc(Cl)cc2)cc1  label 1
 4   O=c1nc2ccc3sc4ccccc4c(=O)c3n2c(=O)[nH]1  label 0
 5          COC1(OC)C(/C(N)=C\O)=NC(C)(C)N1O  label 0
 6  CCOC(=O)c1sc2nc(SC)nc(Nc3ccc(OC)c(OC)c3)c2c1N  label 0
 7  Cc1ccc(OC2CC(n3cnc4c(=O)[nH]c(Br)nc43)OC2Oc2ccc(C)cc2)cc1 (stereo unspecified)  label 0
 8                      OCCNc1ncnc2[nH]cnc12  label 0
 9  CCOc1ccc(N2C(=O)/C(=C/c3ccc(N(CCC#N)CCC#N)cc3)N=C2c2cc([N+](=O)[O-])ccc2Cl)cc1  label 0
10  O=C(Cc1ccccc1)NN1C(=O)C(Cl)C1c1cc(Br)cc(Br)c1O (stereo unspecified)  label 0
11  CN(CCNC(=O)c1nn(-c2ccccc2)c2c1ccc1ccccc12)CCNC(=O)c1nn(-c2ccccc2)c2c1ccc1ccccc12  label 0
12  CC(=O)OC12c3ccccc3-c3ccccc3C1C1C(=O)N(C)C(=O)C12Cl (stereo unspecified)  label 0
13  COc1ccc(C2C3=C(COC3=O)OC(C)(C)Oc3cc4c(cc32)OCO4)cc1OC (stereo unspecified)  label 0
14  CN1CCN(c2n[nH]c(=O)c3c2nnn3Cc2ccccc2)CC1  label 0
15  CC(=O)OC1CCC2(C)C(=CCC3C2CCC2(C)C3CC3OC4(CCC(C)CN4)C(C)C32)C1 (stereo unspecified)  label 0
16  Cc1ccc(OP2(=O)Oc3ccc4ccccc4c3CN2c2ccc(Cl)cc2)cc1C (stereo unspecified)  label 0
17  CN(C)c1ccc(/C=N/c2ccc(-c3nc4ccccc4o3)cc2)cc1  label 0
18  Cc1ccc2nc(-n3c(/C=C/c4ccccc4O)nc4ccccc4c3=O)sc2c1  label 0
19             N#CCCCCCOCCOCCOCCOCCOCCCCCC#N  label 0
20  c1ccc([P+](CCNCCNCC[P+](c2ccccc2)(c2ccccc2)c2ccccc2)(c2ccccc2)c2ccccc2)cc1  label 0
21  CC(C)(C)OC(=O)N(CCCCNC(=O)c1ccccc1)CCCNC(=O)c1ccccc1  label 0

====

- Test system: SN12C
- test-protocol: NCI tumour cell line growth inhibition, 48 h
The source made the active and inactive calls. Cut-off read from the data, not from the text of the source: active = GI50 up to about 1.1 µM and inactive = higher.
quantity-name: GI50

> print(dat)
                                    compound        readout.value
 1  CCCCCN(CCCCC)C(=O)[C@@H](CCC(=O)OCc1ccccc1)NC(=O)c1cc2ccccc2[nH]1  > 100 µM (inactive)
 2                 O=c1oc2ccccc2n1CCN1CCCCC1  > 100 µM (inactive)
 3  COc1cc([C@H]2Oc3cc(O)c4c(=O)cc(-c5ccc(O)cc5)oc4c3O[C@@H]2CO)ccc1O   > 10 µM (inactive)
 4                   C=CCOC(OCC=C)/C(Br)=C/C  > 100 µM (inactive)
 5  CCC1c2[nH]c3ccccc3c2C[C@H]2C(=O)NC(COC(C)(C)C)C(=O)N12 (some centres not stated)   45.5 µM (inactive)
 6    CCC(/C=C/c1ccccc1)=N\Nc1ccc(Cl)c(Cl)c1   24.4 µM (inactive)
 7  COC(CN(C)C(=O)C(C)NC(=O)c1ccccc1)OC (configuration not stated)  > 100 µM (inactive)
 8  COc1ccc(CNNC(=O)c2cc[n+]([BH2-]C#N)cc2)cc1OC  > 100 µM (inactive)
 9  CN(C)Cc1cc(/N=N/c2ccc(Cl)cc2)cc(CN(C)C)c1O   11.4 µM (inactive)
10  C1=C2SSC3=CC=C(SSc4ccc(s4)SSC4=CC=C(SSC(=C1)S2)S4)S3  > 100 µM (inactive)
11  Cc1nn(C(=O)c2ccc(Cl)cc2)c2c1C(c1ccccc1[N+](=O)[O-])SC(=N)N2 (configuration not stated)   > 10 µM (inactive)
12  C[N+](C)([O-])CCCNc1c2ccccc2nc2cccc([N+](=O)[O-])c12    0.265 µM (active)
13     O=Cc1ccc2c(c1-c1c(C=O)ccc3c1OCO3)OCO2  > 100 µM (inactive)
14  CC1(C)Oc2ccc(NC(=O)CCC(N)C(=O)O)cc2O1 (configuration not stated)  > 100 µM (inactive)
15  COc1cccc2c(NNc3ccccc3)c3ccc([N+](=O)[O-])cc3nc12   47.1 µM (inactive)
16     O=c1cc(-c2cccnc2)[nH]c2cc3c(cc12)OCO3   12.2 µM (inactive)
17  NC(=O)N1N=C2c3ccccc3OC[C@H]2[C@@H]1c1ccccc1   23.9 µM (inactive)
18  COc1ccc(-c2nc3c(nc2-c2ccc(OC)cc2)C(N)=NS(=O)(=O)N3)cc1  > 100 µM (inactive)
19  O=[N+]([O-])c1nccn1CC(O)c1ccc(F)cc1 (configuration not stated)  > 100 µM (inactive)
20         C/C(=N\Nc1nc2cc(F)ccc2s1)c1ccccn1   0.0101 µM (active)
21  NC(=O)N/N=C(\Cc1cc(=O)oc2cc(O)ccc12)C(=O)Nc1ccccc1C(N)=O  > 100 µM (inactive)
22  CCCCCCCCC/C=C1\CC(CO)(COC(=O)C2CCCCC2)OC1=O (configuration not stated)   16.9 µM (inactive)

====

# reported GI50; entries follow
- Test system: DMS-273
- test-protocol: NCI tumour cell line growth inhibition, 48 h
Active and inactive are the calls of the source. No stated cut-off is given here; in the data, active = GI50 up to about 1.1 µM and inactive = higher.
quantity-name: GI50

> print(dat)
                                    compound        readout.value
 1  Cc1nc2ccccc2c(=O)n1/N=C(\N=N\c1cc(Cl)ccc1Cl)c1ccccc1   43.3 µM (inactive)
 2  O=c1cccccc1O.O=c1cccccc1O.O=c1cccccc1O.[SiH4]   14.5 µM (inactive)
 3  Cc1ccc(OP2(=O)Oc3ccc4ccccc4c3CN2c2ccc(Cl)cc2)cc1C (stereo not drawn)  > 100 µM (inactive)
 4  CCOC(=O)C1=C(c2ccccc2)NC(c2ccccc2)=C(C(=O)OCC)c2c1c(=O)cc[nH]c2=O  > 100 µM (inactive)
 5  CC(C)C(=O)Nc1nc2c(ncn2C2OC(CO)C(O)C2O)c(=O)[nH]1 (stereo not drawn)  > 100 µM (inactive)
 6     CCOC(=O)C1(C(=O)OCC)OC(=O)NC2=C1CCCC2  > 100 µM (inactive)
 7  N#CC(C#N)=C(N)/C(C#N)=C/c1cc(O)c(O)c(Br)c1   59.2 µM (inactive)
 8  COc1ccc(-c2nc3c(nc2-c2ccc(OC)cc2)C(N)=NS(=O)(=O)N3)cc1  > 100 µM (inactive)
 9     O=c1cc(-c2cccnc2)[nH]c2cc3c(cc12)OCO3   4.13 µM (inactive)
10  c1ccc2cc3c(cc2c1)OP1(Oc2cccc4cccnc24)(O3)Oc2cc3ccccc3cc2O1   3.49 µM (inactive)
11  COC(=O)[C@H]1C=C[C@@H](C)n2c(=O)c3ccccc3c(=O)n21  > 100 µM (inactive)
12  CC(=O)Nc1ccc(-c2nnc(SCC(=O)Nc3ccccc3C)o2)cc1   35.4 µM (inactive)
13   O=C(Sc1sc(=S)sc1SC(=O)c1ccccc1)c1ccccc1     53 µM (inactive)
